The measured values listed here are drawn from the supplement of paper PMC10567573.

B1: SLC35F2 (parent)
chain: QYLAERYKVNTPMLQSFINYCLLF

Variants of: B1
Experiment: protein stability index of a GFP-peptide fusion (GPS, HEK-293T) (PSI 1-6); higher = more stable;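 further: lentivirally expressed fusions sorted by FACS into six bins by GFP to DsRed ratio, PSI derived from sequencing read proportions per bin multiplied by bin number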
Conditions: c terminus: a fixed tail appended
Assay Metric: protein stability index
The answer should be written as a number, with no unit following it.

1) N10W 2.29
2) L23P 1.63
3) L14F 1.69
4) V9A 1.65
5) F17S 3.47
6) T11H 2.19
7) I18D 3.29
8) I18R 3.24

Turning to the following variant.
Which measured protein stability index value corresponds to S16E ?
2.19
